test system: Human alphaherpesvirus 2; assay: Antiviral activity against HSV2 G in human E6SM cells assessed as reduction of virus-induced cytopathogenicity; type: functional; conditions: Human alphaherpesvirus 2, G

structureSmiles: CNC(=S)Nc1ccc(OCc2n[nH]c(=S)n2-c2ccccc2)cc1
readoutUnits: µg/mL
operator: >
MIC: 400

structureSmiles: O=c1[nH]c(=O)n([C@H]2C[C@H](O)[C@@H](CO)O2)cc1/C=C/Br
readoutUnits: µg/mL
operator: =
MIC: 80

structureSmiles: C=CCn1c(COc2ccc(NC(=S)NCC)cc2)n[nH]c1=S
readoutUnits: µg/mL
operator: >
MIC: 400

structureSmiles: Cn1c(COc2ccc(N)cc2)n[nH]c1=S
readoutUnits: µg/mL
operator: =
MIC: 80

structureSmiles: CCn1c(COc2ccc(NC(=S)NC)cc2)n[nH]c1=S
readoutUnits: µg/mL
operator: >
MIC: 400

structureSmiles: S=C(Nc1ccc(Cl)cc1)Nc1ccc(-c2n[nH]c(=S)n2-c2ccccc2)cc1
readoutUnits: µg/mL
operator: >
MIC: 16

structureSmiles: CCCCCCNC(=S)Nc1ccc(-c2n[nH]c(=S)n2CCCCCC)cc1
readoutUnits: µg/mL
operator: >
MIC: 3.2

structureSmiles: S=C(Nc1ccccc1)Nc1ccc(-c2n[nH]c(=S)n2-c2ccccc2)cc1
readoutUnits: µg/mL
operator: >
MIC: 80

structureSmiles: CNC(=S)Nc1ccc(-c2n[nH]c(=S)n2C)cc1
readoutUnits: µg/mL
operator: =
MIC: 240

structureSmiles: C=CCNC(=S)Nc1ccc(OCc2n[nH]c(=S)n2CC=C)cc1
readoutUnits: µg/mL
operator: =
MIC: 240

structureSmiles: CCNC(=S)Nc1ccc(-c2n[nH]c(=S)n2C)cc1
readoutUnits: µg/mL
operator: =
MIC: 240

structureSmiles: Cn1c(-c2ccc(NC(=S)Nc3ccccc3)cc2)n[nH]c1=S
readoutUnits: µg/mL
operator: >
MIC: 80

structureSmiles: CCNC(=S)Nc1ccc(-c2n[nH]c(=S)n2-c2ccccc2)cc1
readoutUnits: µg/mL
operator: >
MIC: 3.2

structureSmiles: C=CCNC(=S)Nc1ccc(-c2nnc(SCc3ccc(Cl)cc3Cl)n2C)cc1
readoutUnits: µg/mL
operator: >
MIC: 16

structureSmiles: CCCCCCNC(=S)Nc1ccc(-c2n[nH]c(=S)n2-c2ccccc2)cc1
readoutUnits: µg/mL
operator: >
MIC: 16

structureSmiles: S=C(Nc1ccccc1)Nc1ccc(OCc2n[nH]c(=S)n2-c2ccccc2)cc1
readoutUnits: µg/mL
operator: >
MIC: 80

structureSmiles: Cn1c(COc2ccc(NC(=S)Nc3ccccc3)cc2)n[nH]c1=S
readoutUnits: µg/mL
operator: >
MIC: 80

structureSmiles: C=CCNC(=S)Nc1ccc(-c2n[nH]c(=S)n2CC)cc1
readoutUnits: µg/mL
operator: =
MIC: 240

structureSmiles: CNC(=S)Nc1ccc(OCc2n[nH]c(=S)n2C)cc1
readoutUnits: µg/mL
operator: =
MIC: 240

structureSmiles: C=CCn1c(COc2ccc(N)cc2)n[nH]c1=S
readoutUnits: µg/mL
operator: =
MIC: 240

structureSmiles: C=CCNC(=S)Nc1ccc(OCc2n[nH]c(=S)n2C)cc1
readoutUnits: µg/mL
operator: =
MIC: 240

structureSmiles: C=CCNC(=S)Nc1ccc(OCc2n[nH]c(=S)n2CC)cc1
readoutUnits: µg/mL
operator: =
MIC: 240

structureSmiles: CCNC(=S)Nc1ccc(OCc2n[nH]c(=S)n2C)cc1
readoutUnits: µg/mL
operator: =
MIC: 240

---

test system: Human immunodeficiency virus 2; assay: Antiviral activity against HIV2 ROD in human MT4 cells assessed as protection against virus-induced cytopathogenicity by MTT assay; assay type: functional, organism-based; set-up: concentration or dose not given beside the values
// returns rule not met unless Activity is strictly below 1%, in which case rule met

structureSmiles: CCNC(=S)Nc1ccc(-c2n[nH]c(=S)n2C)cc1
categoryLabel: rule met
//
structureSmiles: CCn1c(COc2ccc(NC(=S)NC)cc2)n[nH]c1=S
categoryLabel: rule not met
//
structureSmiles: C=CCn1c(COc2ccc(NC(=S)NC)cc2)n[nH]c1=S
categoryLabel: rule not met
//
structureSmiles: CCCCCCNC(=S)Nc1ccc(-c2n[nH]c(=S)n2C)cc1
categoryLabel: rule met
//
structureSmiles: CNC(=S)Nc1ccc(-c2nnc(SCc3ccccc3)n2C)cc1
categoryLabel: rule not met
//
structureSmiles: S=C(Nc1ccccc1)Nc1ccc(-c2n[nH]c(=S)n2-c2ccccc2)cc1
categoryLabel: rule met
//
structureSmiles: Cn1c(-c2ccc(NC(=S)Nc3ccccc3)cc2)n[nH]c1=S
categoryLabel: rule not met
//
structureSmiles: CNC(=S)Nc1ccc(-c2n[nH]c(=S)n2C)cc1
categoryLabel: rule met
//
structureSmiles: Cn1c(COc2ccc(N)cc2)n[nH]c1=S
categoryLabel: rule not met
//
structureSmiles: CNC(=S)Nc1ccc(-c2n[nH]c(=S)n2-c2ccccc2)cc1
categoryLabel: rule met
//
structureSmiles: C=CCNC(=S)Nc1ccc(OCc2n[nH]c(=S)n2CC)cc1
categoryLabel: rule not met
//
structureSmiles: CCn1c(COc2ccc(N)cc2)n[nH]c1=S
categoryLabel: rule not met
//
structureSmiles: C=CCn1c(COc2ccc(NC(=S)Nc3ccccc3)cc2)n[nH]c1=S
categoryLabel: rule not met
//
structureSmiles: C=CCNC(=S)Nc1ccc(-c2n[nH]c(=S)n2CC=C)cc1
categoryLabel: rule met
//
structureSmiles: CCNC(=S)Nc1ccc(OCc2n[nH]c(=S)n2-c2ccccc2)cc1
categoryLabel: rule not met
//
structureSmiles: C=CCn1c(COc2ccc(N)cc2)n[nH]c1=S
categoryLabel: rule not met
//
structureSmiles: C=CCn1c(COc2ccc(NC(=S)NCC)cc2)n[nH]c1=S
categoryLabel: rule not met
//
structureSmiles: CCCCCCNC(=S)Nc1ccc(-c2n[nH]c(=S)n2CC)cc1
categoryLabel: rule not met
//
structureSmiles: S=C(Nc1ccc(Cl)cc1)Nc1ccc(-c2n[nH]c(=S)n2-c2ccccc2)cc1
categoryLabel: rule not met
//
structureSmiles: CNC(=S)Nc1ccc(OCc2n[nH]c(=S)n2-c2ccccc2)cc1
categoryLabel: rule not met
//
structureSmiles: C=CCNC(=S)Nc1ccc(-c2n[nH]c(=S)n2CC)cc1
categoryLabel: rule met
//
structureSmiles: CCn1c(COc2ccc(NC(=S)Nc3ccccc3)cc2)n[nH]c1=S
categoryLabel: rule not met
//
structureSmiles: C=CCNC(=S)Nc1ccc(OCc2n[nH]c(=S)n2-c2ccccc2)cc1
categoryLabel: rule met

---

test: Cytotoxicity against human HEL cells assessed as reduction of cell growth; type: cell-based
assayEndpoint: CC50

compound: CNC(=S)Nc1ccc(OCc2n[nH]c(=S)n2-c2ccccc2)cc1
reported: > 50 mg/L
//
compound: C=CCn1c(COc2ccc(NC(=S)Nc3ccccc3)cc2)n[nH]c1=S
reported: 42 mg/L
//
compound: CNC(=S)Nc1ccc(OCc2n[nH]c(=S)n2C)cc1
reported: > 50 mg/L
//
compound: Nc1nc2c(ncn2COCCO)c(=O)[nH]1 [ACYCLOVIR]
reported: 200 mg/L
//
compound: C=CCNC(=S)Nc1ccc(OCc2n[nH]c(=S)n2CC=C)cc1
reported: > 50 mg/L
//
compound: CCNC(=S)Nc1ccc(OCc2n[nH]c(=S)n2CC)cc1
reported: > 50 mg/L
//
compound: CCNC(=S)Nc1ccc(OCc2n[nH]c(=S)n2-c2ccccc2)cc1
reported: > 50 mg/L
//
compound: C=CCn1c(COc2ccc(N)cc2)n[nH]c1=S
reported: > 50 mg/L
//
compound: CCNC(=S)Nc1ccc(OCc2n[nH]c(=S)n2C)cc1
reported: > 50 mg/L
//
compound: Cn1c(COc2ccc(NC(=S)Nc3ccccc3)cc2)n[nH]c1=S
reported: > 50 mg/L
//
compound: C=CCNC(=S)Nc1ccc(OCc2n[nH]c(=S)n2C)cc1
reported: > 50 mg/L
//
compound: Cn1c(COc2ccc(N)cc2)n[nH]c1=S
reported: > 50 mg/L

---

tested on: Vero; experiment: Cytotoxicity against african green monkey Vero cells; assay type: cell-based; details: chlorocebus sabaeus
assayEndpoint: Activity

structureSmiles: CCn1c(COc2ccc(NC(=S)Nc3ccccc3)cc2)n[nH]c1=S
reported: >= 80 ug ml-1
//
structureSmiles: CNC(=S)Nc1ccc(-c2n[nH]c(=S)n2-c2ccccc2)cc1
reported: >= 80 ug ml-1
//
structureSmiles: C=CCNC(=S)Nc1ccc(-c2nnc(SCc3ccc(Cl)cc3Cl)n2-c2ccccc2)cc1
reported: >= 16 ug ml-1
//
structureSmiles: C=CCNC(=S)Nc1ccc(-c2n[nH]c(=S)n2CC)cc1
reported: >= 80 ug ml-1
//
structureSmiles: S=C(Nc1ccc(Cl)cc1)Nc1ccc(-c2n[nH]c(=S)n2-c2ccccc2)cc1
reported: >= 16 ug ml-1
//
structureSmiles: C=CCNC(=S)Nc1ccc(-c2n[nH]c(=S)n2CCc2ccccc2)cc1
reported: >= 80 ug ml-1
//
structureSmiles: CCNC(=S)Nc1ccc(-c2n[nH]c(=S)n2-c2ccccc2)cc1
reported: >= 80 ug ml-1
//
structureSmiles: C=CCNC(=S)Nc1ccc(-c2n[nH]c(=S)n2CCCCCC)cc1
reported: >= 16 ug ml-1
//
structureSmiles: C=CCNC(=S)Nc1ccc(-c2n[nH]c(=S)n2CC=C)cc1
reported: >= 80 ug ml-1
//
structureSmiles: C=CCn1c(-c2ccc(NC(=S)NC)cc2)n[nH]c1=S
reported: >= 80 ug ml-1
